Values from patent US9174996B2

Test system: U937
Assay: MTT cell viability assay, Experiment 3
Type: cell-based
Settings: Homo sapiens, U-937; MTT, Mean ± S.E.M, two independent experiments; read-out: IC50 cell viability, Non-CML leukemia cells U937
Protocol: This study evaluated the effect of the pure optical isomers on human leukemia cell viability in vitro. Ponatinib was used as the positive control. Two BCR-ABL-positive human leukemia cell lines, K562 and KU812, were used in this study. […] Cells were seeded in 24-well plates, and treated with drugs at corresponding concentrations. Cell viability was measured using a MTT (3-(4,5-dimethylthiazol-2-yl)-2,5-diphenyltetrazolium bromide)-based colorimetric assay with a 96-well plate reader. […]
pIC50: −log10 of the molar value.
Item-by-item account of pIC50
MEASUREMENT KIND: pIC50

INSERT INTO results (molecule, measurement_kind, comparator, numeric_result) VALUES
  ('Cc1ccc(C(=O)Nc2ccc3c(c2)C(F)(F)C[C@H]3N2CCN(C)CC2)cc1C#Cc1cnc(NC2CC2)nc1 [37-(R)]', 'pIC50', '=', 6.33),
  ('Cc1ccc(C(=O)Nc2ccc3c(c2)C(F)(F)C[C@@H]3N2CCN(C)CC2)cc1C#Cc1cnc2cccnn12 [Compound 36-(S)]', 'pIC50', '=', 6.06),
  ('CN1CCN([C@@H]2CC(F)(F)c3cc(NC(=O)c4ccc(Cl)c(C#Cc5cnc6cccnn56)c4)ccc32)CC1 (single isomer, unassigned) [38-(R)]', 'pIC50', '<', 6.00);

---

Item-by-item account of GI50
molecular target: Ba/F3 cells expressing native BCR-ABL (Homo sapiens, UniProt P00519); assay: MTT cell viability assay, Experiment 3; format: cell-based, murine; details: Mean ± S.E.M, two independent experiments, read-out: IC50 cell viability, Ba/F3 cells Native BCR-ABL
Sequence (P00519 whole entry, change not shown): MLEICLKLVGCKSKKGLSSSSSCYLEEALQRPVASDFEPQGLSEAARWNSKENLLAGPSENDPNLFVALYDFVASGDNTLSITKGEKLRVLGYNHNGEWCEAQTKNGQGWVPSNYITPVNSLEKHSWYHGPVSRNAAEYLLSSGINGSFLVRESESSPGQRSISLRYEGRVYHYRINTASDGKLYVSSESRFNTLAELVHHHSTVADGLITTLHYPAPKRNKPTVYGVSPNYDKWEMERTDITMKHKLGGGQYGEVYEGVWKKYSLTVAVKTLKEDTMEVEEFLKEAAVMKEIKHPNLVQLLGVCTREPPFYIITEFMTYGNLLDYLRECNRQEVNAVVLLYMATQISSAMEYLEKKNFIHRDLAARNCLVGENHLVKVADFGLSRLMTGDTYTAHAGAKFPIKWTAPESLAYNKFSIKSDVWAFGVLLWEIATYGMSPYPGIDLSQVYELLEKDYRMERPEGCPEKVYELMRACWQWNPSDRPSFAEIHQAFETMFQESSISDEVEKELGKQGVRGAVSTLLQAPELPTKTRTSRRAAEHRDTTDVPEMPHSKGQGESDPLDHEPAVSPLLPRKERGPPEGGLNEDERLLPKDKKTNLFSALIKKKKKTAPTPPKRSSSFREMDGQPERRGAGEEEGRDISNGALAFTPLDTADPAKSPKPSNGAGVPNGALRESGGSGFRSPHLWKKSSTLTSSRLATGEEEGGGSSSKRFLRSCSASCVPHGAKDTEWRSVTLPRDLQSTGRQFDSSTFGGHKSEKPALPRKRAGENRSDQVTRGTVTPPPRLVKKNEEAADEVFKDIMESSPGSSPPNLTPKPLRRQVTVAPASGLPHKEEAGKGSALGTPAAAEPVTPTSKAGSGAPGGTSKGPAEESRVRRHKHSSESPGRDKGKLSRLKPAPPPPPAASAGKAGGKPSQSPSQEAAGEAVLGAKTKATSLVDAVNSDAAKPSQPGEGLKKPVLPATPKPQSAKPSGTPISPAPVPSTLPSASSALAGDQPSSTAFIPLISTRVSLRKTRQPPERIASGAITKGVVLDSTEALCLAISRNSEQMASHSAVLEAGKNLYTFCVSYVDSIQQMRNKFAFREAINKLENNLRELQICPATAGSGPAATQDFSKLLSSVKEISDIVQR
MEASUREMENT KIND: GI50 (nM)

INSERT INTO results (molecule, numeric_result) VALUES
  ('Cc1ccc(C(=O)Nc2ccc3c(c2)C(F)(F)C[C@@H]3N2CCN(C)CC2)cc1C#Cc1cnc2cccnn12 [Compound 36-(S)]', 2.1),
  ('CN1CCN(C2CC(F)(F)c3cc(NC(=O)c4ccc(Cl)c(C#Cc5cnc6cccnn56)c4)ccc32)CC1 (racemic) [Compound 38]', 4.9),
  ('CN1CCN([C@H]2CC(F)(F)c3cc(NC(=O)c4ccc(F)c(C#Cc5cnc6cccnn56)c4)ccc32)CC1 (single isomer, unassigned) [39-(S)]', 2.3),
  ('CN1CCN(C2CC(F)(F)c3cc(NC(=O)c4ccc(F)c(C#Cc5cnc6cccnn56)c4)ccc32)CC1 (racemic) [Compound 39]', 3.6),
  ('Cc1ccc(C(=O)Nc2ccc3c(c2)C(F)(F)C[C@H]3N2CCN(C)CC2)cc1C#Cc1cnc(NC2CC2)nc1 [37-(R)]', 62.5),
  ('Cc1ccc(C(=O)Nc2ccc3c(c2)C(F)(F)CC3N2CCN(C)CC2)cc1C#Cc1cnc(NC2CC2)nc1 (racemic) [Compound 37]', 9.3);

---

Item-by-item account of melting point
MEASUREMENT KIND: melting point

INSERT INTO measurements (compound, result) VALUES
  ('CN1CCN(Cc2ccc(NC(=O)c3ccc(Cl)c(C#Cc4ccc(NC5CCC5)nn4)c3)cc2C(F)(F)F)CC1', '132 to 133 °C'),
  ('Cc1cn(-c2ccc(NC(=O)c3ccc(Cl)c(C#Cc4cnc5cccnn45)c3)cc2C(F)(F)F)cn1', '153 to 155 °C'),
  ('Cc1cn(-c2cc(NC(=O)c3ccc(C)c(C#Cc4ccc(NC(C)C)nn4)c3)cc(C(F)(F)F)c2)cn1', '192 to 194 °C'),
  ('CN1CCN(Cc2ccc(NC(=O)N3CCC(C#Cc4cnc5cccnn45)C3)cc2C(F)(F)F)CC1 (stereo not drawn)', '83 to 85 °C'),
  ('CC(C)Nc1ccc(C#Cc2cc(C(=O)Nc3ccc(CN4CCN(C)CC4)c(C(F)(F)F)c3)ccc2Cl)nn1', '133 to 134 °C'),
  ('CN1CCN(Cc2ccc(NC(=O)N3CCCC(C#Cc4cnc5cccnn45)C3)cc2C(F)(F)F)CC1 (stereo not drawn)', '65 to 70 °C'),
  ('Cc1cn(-c2ccc(NC(=O)c3ccc(C)c(C#Cc4cnc(NC5CC5)nc4)c3)cc2C(F)(F)F)cn1', '131 to 133 °C'),
  ('Cc1ccc(C(=O)Nc2ccc3c(c2)C(F)(F)CC3N2CCN(C)CC2)cc1C#Cc1cnc(NC2CC2)nc1 (racemic)', '95 to 97 °C'),
  ('CN1CCN(Cc2ccc3nc(-c4ccc(Cl)c(C#Cc5cnc(NC6CC6)nc5)c4)[nH]c3c2)CC1', '160 to 162 °C'),
  ('Cc1ccc(C(=O)Nc2ccc(CN3CCN(C)CC3)c(C(F)(F)F)c2)cc1C#Cc1ccc(NC2CCC2)nn1', '120 to 121 °C'),
  ('CN1CCN(Cc2ccc3nc(-c4ccc(Cl)c(C#Cc5ccc(NC6CCC6)nn5)c4)[nH]c3c2)CC1', '161 to 163 °C'),
  ('CN1CCN(Cc2ccc(NC(=O)c3ccc(Cl)c(C#Cc4ccc(NC5CC5)nn4)c3)cc2C(F)(F)F)CC1', '133 to 134 °C'),
  ('Cc1ccc(-c2nc3ccc(CN4CCN(C)CC4)cc3[nH]2)cc1C#Cc1cnc(NC2CC2)nc1', '136 to 137 °C'),
  ('Cc1cn(-c2cc(NC(=O)c3ccc(Cl)c(C#Cc4ccc(NC5CCC5)nn4)c3)cc(C(F)(F)F)c2)cn1', '225 to 227 °C'),
  ('Cc1cn(-c2cc(NC(=O)c3ccc(Cl)c(C#Cc4cnc5cccnn45)c3)cc(C(F)(F)F)c2)cn1', '153 to 154 °C'),
  ('Cc1cn(-c2ccc(NC(=O)c3ccc(Cl)c(C#Cc4ccc(NC5CC5)nn4)c3)cc2C(F)(F)F)cn1', '150 to 152 °C'),
  ('Cc1cn(-c2ccc(NC(=O)c3ccc(Cl)c(C#Cc4ccc(NC5CCC5)nn4)c3)cc2C(F)(F)F)cn1', '153 to 155 °C'),
  ('Cc1cn(-c2ccc(NC(=O)c3ccc(C)c(C#Cc4cnc5cccnn45)c3)cc2C(F)(F)F)cn1', '124 to 126 °C'),
  ('Cc1cn(-c2ccc(NC(=O)c3ccc(C)c(C#Cc4ccc(NC5CC5)nn4)c3)cc2C(F)(F)F)cn1', '125 to 126 °C'),
  ('Cc1ccc(-c2nc3ccc(CN4CCN(C)CC4)cc3[nH]2)cc1C#Cc1cnc2cccnn12', '114 to 115 °C'),
  ('CN1CCN(Cc2ccc3nc(-c4ccc(Cl)c(C#Cc5ccc(NC6CC6)nn5)c4)[nH]c3c2)CC1', '130 to 131 °C'),
  ('Cc1ccc(C(=O)Nc2ccc(CN3CCN(C)CC3)c(C(F)(F)F)c2)cc1C#Cc1ccc(NC(C)C)nn1', '67 to 68 °C'),
  ('Cc1ccc(C(=O)Nc2ccc(CN3CCN(C)CC3)c(C(F)(F)F)c2)cc1C#Cc1ccc(NC2CC2)nn1', '68 to 69 °C'),
  ('Cc1cn(-c2ccc3nc(-c4ccc(C)c(C#Cc5cnc6cccnn56)c4)[nH]c3c2)cn1', '182 to 184 °C');

---

MEASUREMENT KIND: melting point

INSERT INTO results (molecule, result) VALUES
  ('CN1CCN(Cc2ccc3nc(-c4ccc(Cl)c(C#Cc5cnc6cccnn56)c4)[nH]c3c2)CC1 [Compound 6]', '156 to 157 °C'),
  ('Cc1cn(-c2cc(NC(=O)c3ccc(C)c(C#Cc4ccc(NC5CCC5)nn4)c3)cc(C(F)(F)F)c2)cn1 [Compound 24]', '223 to 225 °C'),
  ('Cc1cn(-c2ccc(NC(=O)c3ccc(C)c(C#Cc4ccc(NC(C)C)nn4)c3)cc2C(F)(F)F)cn1 [Compound 19]', '141 to 143 °C'),
  ('Cc1cn(-c2cc(NC(=O)c3ccc(Cl)c(C#Cc4ccc(NC5CC5)nn4)c3)cc(C(F)(F)F)c2)cn1 [Compound 26]', '213 to 215 °C'),
  ('Cc1cn(-c2ccc(NC(=O)c3ccc(Cl)c(C#Cc4ccc(NC(C)C)nn4)c3)cc2C(F)(F)F)cn1 [Compound 22]', '133 to 135 °C'),
  ('Cc1cn(-c2cc(NC(=O)c3ccc(C)c(C#Cc4ccc(NC5CC5)nn4)c3)cc(C(F)(F)F)c2)cn1 [Compound 23]', '226 to 228 °C'),
  ('Cc1ccc(-c2nc3ccc(CN4CCN(C)CC4)cc3[nH]2)cc1C#Cc1ccc(NC(C)C)nn1 [Compound 4]', '129 to 130 °C');

---

biological target: Ba/F3 cells expressing native BCR-ABL (Homo sapiens, UniProt P00519); experiment: MTT cell viability assay, Experiment 3; format: cell-based, murine; details: Mean ± S.E.M, two independent experiments, read-out: IC50 cell viability, Ba/F3 cells Native BCR-ABL
We label by threshold. Values of GI50 strictly beneath 4 nM are T. Values of 4 nM and up are F.

INSERT INTO results (compound, qualitative_label) VALUES
  ('Cc1ccc(C(=O)Nc2ccc3c(c2)C(F)(F)CC3N2CCN(C)CC2)cc1C#Cc1cnc2cccnn12 (racemic)', 'T'),
  ('Cc1ccc(C(=O)Nc2ccc3c(c2)C(F)(F)C[C@H]3N2CCN(C)CC2)cc1C#Cc1cnc2cccnn12 [36-(R)]', 'F'),
  ('Cc1ccc(C(=O)Nc2ccc3c(c2)C(F)(F)C[C@@H]3N2CCN(C)CC2)cc1C#Cc1cnc(NC2CC2)nc1 [37-(S)]', 'T'),
  ('CN1CCN([C@@H]2CC(F)(F)c3cc(NC(=O)c4ccc(Cl)c(C#Cc5cnc6cccnn56)c4)ccc32)CC1 (single isomer, unassigned) [38-(R)]', 'F'),
  ('CN1CCN([C@H]2CC(F)(F)c3cc(NC(=O)c4ccc(Cl)c(C#Cc5cnc6cccnn56)c4)ccc32)CC1 (single isomer, unassigned) [Compound 38-(S)]', 'T'),
  ('CN1CCN([C@@H]2CC(F)(F)c3cc(NC(=O)c4ccc(F)c(C#Cc5cnc6cccnn56)c4)ccc32)CC1 (single isomer, unassigned) [39-(R)]', 'F');
